System: MDA-MB-453 (HER2-positive BC) cells
PROTOCOL_DESCRIPTION: MTT cell viability assay, MDA-MB-453
Assay type: cell-based, human
CONDITION_DETAILS: 48 h
MEASURED_ATTRIBUTE: IC50 (nM)
Entry rule: numbers only, all in nM.

Q: What IC50 appears in the records for this compound with MDA-MB-453 (HER2-positive BC) cells? CCNC(=NN=C(C)c1ccccn1)[S][Zn][O]C(=NN=C(C)c1ccccn1)c1ccco1 [Complex 1, [Zn(Hz)(atc–Et)]]
A: 320
